Each recorded value in this set is attributed to patent US12662479B2.

Target: HiBit-BRG1 fusion protein (Homo sapiens)
Construct: expressed in transfected cells
Experiment: HiBiT-BRG1 cell-based degradation assay (Nano-Glo HiBiT Lytic Detection, 24 h)
Conditions: HeLa, HeLa cells expressing HiBit-BRG1 and LgBit, top dose 30 μM, read-out: BRG1 HiBit Degradation Maximum measured
measurement-name: Dmax

compound="Cc1cc(C(=O)NCC(=O)Nc2nc(-c3cccc(-c4ccnc(N(C)CC(=O)NCCCCCCCCNC(=O)COc5cccc6c5C(=O)N(C5CCC(=O)NC5=O)C6=O)c4)c3)cs2)cn1S(C)(=O)=O (stereo not shown)" measurement_name=Dmax measurement="< 50%"
compound="CS(=O)(=O)n1ccc(C(=O)N[C@@H](CCCCNC(=O)CCOCCOCCOc2cccc3c2C(=O)N(C2CCC(=O)NC2=O)C3=O)C(=O)Nc2nc(-c3ccccc3)cs2)c1 (stereo partly shown)" measurement_name=Dmax measurement="< 50%"
compound="CS(=O)(=O)n1ccc(C(=O)N[C@@H](COCc2ccc(CNC(=O)CCN3CC4(C3)CN(c3ccc5c(c3)C(=O)N(C3CCC(=O)NC3=O)C5=O)C4)cc2)C(=O)Nc2nc(-c3ccccc3)cs2)c1 (stereo partly shown)" measurement_name=Dmax measurement="50 to 75%"
compound=Cc1ncsc1-c1ccc(CNC(=O)[C@@H]2C[C@@H](O)CN2C(=O)[C@@H](NC(=O)COCCOCCOCCOCC(=O)NCc2cccc(-c3cccc(-c4csc(NC(=O)CNC(=O)c5ccn(S(C)(=O)=O)c5)n4)c3)c2)C(C)(C)C)cc1 measurement_name=Dmax measurement="50 to 75%"
compound="CN(CCNC(=O)CCCOCC[C@H](NC(=O)c1ccn(S(C)(=O)=O)c1)C(=O)Nc1nc(-c2ccccc2)cs1)CCNc1cccc2c1C(=O)N(C1CCC(=O)NC1=O)C2=O (stereo partly shown)" measurement_name=Dmax measurement="< 50%"
compound="CN(CC(=O)NCCCCCCCCNc1ccc2c(c1)C(=O)N(C1CCC(=O)NC1=O)C2=O)c1cc(-c2cccc(-c3csc(NC(=O)CNC(=O)c4ccn(S(C)(=O)=O)c4)n3)c2)ccn1 (stereo not shown)" measurement_name=Dmax measurement="< 50%"
compound="CS(=O)(=O)n1ccc(C(=O)N[C@@H](CCOCCCC(=O)N2CCC3(CC2)CC(Oc2ccc4c(c2)C(=O)N(C2CCC(=O)NC2=O)C4=O)C3)C(=O)Nc2nc(-c3ccccc3)cs2)c1 (stereo partly shown)" measurement_name=Dmax measurement="< 50%"
compound="CS(=O)(=O)n1ccc(C(=O)N[C@@H](CCOCCCC(=O)NCCC2CCN(c3ccc4c(c3)C(=O)N(C3CCC(=O)NC3=O)C4=O)CC2)C(=O)Nc2nc(-c3ccccc3)cs2)c1 (stereo partly shown)" measurement_name=Dmax measurement="< 50%"
compound="CS(=O)(=O)n1ccc(C(=O)N[C@@H](COCc2ccc(C(=O)N3CC(Oc4ccc5c(c4)C(=O)N(C4CCC(=O)NC4=O)C5=O)C3)cc2)C(=O)Nc2nc(-c3ccccc3)cs2)c1 (stereo partly shown)" measurement_name=Dmax measurement="< 50%"
compound=Cc1ncsc1-c1ccc(CNC(=O)[C@@H]2C[C@@H](O)CN2C(=O)[C@@H](NC(=O)CN2CC(C(=O)NCc3cccc(-c4cccc(-c5csc(NC(=O)CNC(=O)c6ccn(S(C)(=O)=O)c6)n5)c4)c3)C2)C(C)(C)C)cc1 measurement_name=Dmax measurement="< 50%"

---

Target: HiBit-BRG1 fusion protein (Homo sapiens)
Construct: expressed in transfected cells
Assay: HiBiT-BRG1 cell-based degradation assay (Nano-Glo HiBiT Lytic Detection, 24 h)
Conditions: HeLa, HeLa cells expressing HiBit-BRG1 and LgBit, top dose 30 μM, read-out: BRG1 HiBit Degradation Maximum measured
measurement-name: Dmax

molecule="CS(=O)(=O)n1ccc(C(=O)N[C@@H](COCc2ccc(C(=O)N3CC4(CCN(CCCNc5ccc6c(c5)C(=O)N(C5CCC(=O)NC5=O)C6=O)CC4)C3)cc2)C(=O)Nc2nc(-c3ccccc3)cs2)c1 (stereo partly shown)" measurement="50 to 75%"
molecule="CN(CC(=O)NCCOCCOCCNc1cccc2c1C(=O)N(C1CCC(=O)NC1=O)C2=O)c1cc(-c2cccc(-c3csc(NC(=O)CNC(=O)c4ccn(S(C)(=O)=O)c4)n3)c2)ccn1 (stereo not shown)" measurement="< 50%"
molecule="CS(=O)(=O)n1ccc(C(=O)NCC(=O)Nc2nc(-c3cccc(-c4ccnc(C5(C(=O)N6CC(CN7CCN(c8ccc9c(c8)C(=O)N(C8CCC(=O)NC8=O)C9=O)CC7)C6)CC5)c4)c3)cs2)c1 (stereo not shown)" measurement="> 75%"
molecule="CS(=O)(=O)n1ccc(C(=O)N[C@@H](COCc2ccc(C(=O)NCCCC#Cc3ccc4c(c3)C(=O)N(C3CCC(=O)NC3=O)C4=O)cc2)C(=O)Nc2nc(-c3ccccc3)cs2)c1 (stereo partly shown)" measurement="50 to 75%"
molecule="CS(=O)(=O)n1ccc(C(=O)N[C@@H](COCc2ccc(C(=O)NCCOCCOCCNC(=O)COc3ccc4c(c3)C(=O)N(C3CCC(=O)NC3=O)C4=O)cc2)C(=O)Nc2nc(-c3ccccc3)cs2)c1 (stereo partly shown)" measurement="< 50%"
molecule="CS(=O)(=O)n1ccc(C(=O)NCC(=O)Nc2nc(-c3cccc(-c4ccnc(C5(C(=O)N6CC(COc7ccc8c(c7)C(=O)N(C7CCC(=O)NC7=O)C8=O)C6)CC5)c4)c3)cs2)c1 (stereo not shown)" measurement="< 50%"
molecule=Cc1ncsc1-c1ccc(CNC(=O)[C@@H]2C[C@@H](O)CN2C(=O)[C@@H](NC(=O)COCCOCCNC(=O)CCCOC[C@H](NC(=O)c2ccn(S(C)(=O)=O)c2)C(=O)Nc2nc(-c3ccccc3)cs2)C(C)(C)C)cc1 measurement="< 50%"
molecule="CS(=O)(=O)n1ccc(C(=O)NCC(=O)Nc2nc(-c3cccc(-c4cccc(CNC(=O)CCOCCOCCNc5ccc6c(c5)C(=O)N(C5CCC(=O)NC5=O)C6=O)c4)c3)cs2)c1 (stereo not shown)" measurement="< 50%"
molecule="CS(=O)(=O)n1ccc(C(=O)N[C@@H](COCc2ccc(CNC(=O)CCCCCCCOc3cccc4c3C(=O)N(C3CCC(=O)NC3=O)C4=O)cc2)C(=O)Nc2nc(-c3ccccc3)cs2)c1 (stereo partly shown)" measurement="50 to 75%"
molecule="CS(=O)(=O)n1ccc(C(=O)NCC(=O)Nc2nc(-c3cccc(-c4ccnc(C5(C(=O)NCCCC#Cc6cccc7c6C(=O)N(C6CCC(=O)NC6=O)C7=O)CC5)c4)c3)cs2)c1 (stereo not shown)" measurement="< 50%"

---

Property: DC50; scope: individual molecules
Molecular target: HiBit-BRM fusion protein (Homo sapiens, UniProt P51531)
Construct: expressed in transfected cells
Sequence (P51531 whole entry, the tested form may be a part): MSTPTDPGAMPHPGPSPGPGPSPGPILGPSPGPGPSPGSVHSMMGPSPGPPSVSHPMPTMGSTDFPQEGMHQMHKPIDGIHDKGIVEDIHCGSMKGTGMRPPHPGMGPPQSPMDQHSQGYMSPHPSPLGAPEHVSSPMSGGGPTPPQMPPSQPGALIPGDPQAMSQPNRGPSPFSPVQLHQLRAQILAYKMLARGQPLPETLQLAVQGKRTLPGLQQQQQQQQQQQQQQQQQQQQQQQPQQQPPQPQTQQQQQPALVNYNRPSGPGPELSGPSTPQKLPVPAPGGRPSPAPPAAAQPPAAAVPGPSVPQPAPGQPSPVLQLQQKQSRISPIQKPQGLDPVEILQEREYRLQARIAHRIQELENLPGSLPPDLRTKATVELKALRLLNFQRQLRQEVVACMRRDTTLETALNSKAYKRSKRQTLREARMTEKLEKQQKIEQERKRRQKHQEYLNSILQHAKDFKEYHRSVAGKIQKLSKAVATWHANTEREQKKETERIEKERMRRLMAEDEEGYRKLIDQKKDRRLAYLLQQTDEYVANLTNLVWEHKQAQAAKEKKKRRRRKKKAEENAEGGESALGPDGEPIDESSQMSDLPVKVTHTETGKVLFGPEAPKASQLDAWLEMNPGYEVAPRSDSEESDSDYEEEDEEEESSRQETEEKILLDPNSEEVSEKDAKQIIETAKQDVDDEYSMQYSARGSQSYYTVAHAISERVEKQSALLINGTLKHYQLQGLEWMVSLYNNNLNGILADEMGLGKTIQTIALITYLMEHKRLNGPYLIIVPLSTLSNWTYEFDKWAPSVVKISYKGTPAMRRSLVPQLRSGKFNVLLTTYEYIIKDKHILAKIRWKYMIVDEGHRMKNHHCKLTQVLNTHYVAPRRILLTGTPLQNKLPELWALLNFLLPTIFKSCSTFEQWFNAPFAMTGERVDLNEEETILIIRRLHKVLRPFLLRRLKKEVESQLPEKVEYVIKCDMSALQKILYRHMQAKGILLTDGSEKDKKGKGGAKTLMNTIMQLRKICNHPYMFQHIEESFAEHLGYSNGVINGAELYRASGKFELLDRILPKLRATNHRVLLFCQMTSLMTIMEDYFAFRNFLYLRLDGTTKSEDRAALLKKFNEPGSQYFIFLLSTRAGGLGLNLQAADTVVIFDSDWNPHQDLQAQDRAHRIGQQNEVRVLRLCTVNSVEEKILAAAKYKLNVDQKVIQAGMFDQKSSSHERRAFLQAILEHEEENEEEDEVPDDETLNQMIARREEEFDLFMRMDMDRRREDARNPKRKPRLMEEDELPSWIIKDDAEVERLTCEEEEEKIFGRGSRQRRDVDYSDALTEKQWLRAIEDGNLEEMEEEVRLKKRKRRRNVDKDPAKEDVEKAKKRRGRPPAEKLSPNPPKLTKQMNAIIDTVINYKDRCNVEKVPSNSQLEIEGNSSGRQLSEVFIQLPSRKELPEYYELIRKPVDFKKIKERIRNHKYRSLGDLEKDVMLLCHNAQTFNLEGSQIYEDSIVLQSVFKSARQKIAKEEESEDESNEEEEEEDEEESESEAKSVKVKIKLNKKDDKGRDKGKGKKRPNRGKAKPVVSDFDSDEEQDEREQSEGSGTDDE
Test: HiBiT-BRM cell-based degradation assay (Nano-Glo HiBiT Lytic Detection, 24 h)
Conditions: HeLa cells expressing HiBiT-BRM, read-out: BRM HiBit Degradation IC50
measurement-name: DC50

molecule="CS(=O)(=O)n1ccc(C(=O)NCC(=O)Nc2nc(-c3cccc(-c4ccnc(C5(C(=O)NCCCC#Cc6cccc7c6C(=O)N(C6CCC(=O)NC6=O)C7=O)CC5)c4)c3)cs2)c1 (centres unmarked)" measurement="> 10 µM"
molecule="CS(=O)(=O)n1ccc(C(=O)NCC(=O)Nc2nc(-c3cccc(-c4ccn(CC(=O)NCCCCCNc5cccc6c5C(=O)N(C5CCC(=O)NC5=O)C6=O)n4)c3)cs2)c1 (centres unmarked)" measurement="> 10 µM"
molecule=Cc1ncsc1-c1ccc(CNC(=O)[C@@H]2C[C@@H](O)CN2C(=O)[C@@H](NC(=O)NCc2cccc(-c3cccc(-c4csc(NC(=O)CNC(=O)c5ccn(S(C)(=O)=O)c5)n4)c3)c2)C(C)(C)C)cc1 measurement="> 10 µM"
molecule="CS(=O)(=O)n1ccc(C(=O)N[C@@H](CCOCCCC(=O)NCCOCCOCCNC(=O)COc2cccc3c2C(=O)N(C2CCC(=O)NC2=O)C3=O)C(=O)Nc2nc(-c3ccccc3)cs2)c1 (some centres unmarked)" measurement="> 10 µM"
molecule="CC(C)(C(=O)NCCCCCCCCNC(=O)COc1cccc2c1C(=O)N(C1CCC(=O)NC1=O)C2=O)n1ccc(-c2cccc(-c3csc(NC(=O)CNC(=O)c4ccn(S(C)(=O)=O)c4)n3)c2)n1 (centres unmarked)" measurement="0.1 to 1 µM"

---

Biological target: HiBit-BRG1 fusion protein (Homo sapiens, UniProt P51532)
Construct: expressed in transfected cells
Sequence (P51532 whole entry, the tested form may be a part): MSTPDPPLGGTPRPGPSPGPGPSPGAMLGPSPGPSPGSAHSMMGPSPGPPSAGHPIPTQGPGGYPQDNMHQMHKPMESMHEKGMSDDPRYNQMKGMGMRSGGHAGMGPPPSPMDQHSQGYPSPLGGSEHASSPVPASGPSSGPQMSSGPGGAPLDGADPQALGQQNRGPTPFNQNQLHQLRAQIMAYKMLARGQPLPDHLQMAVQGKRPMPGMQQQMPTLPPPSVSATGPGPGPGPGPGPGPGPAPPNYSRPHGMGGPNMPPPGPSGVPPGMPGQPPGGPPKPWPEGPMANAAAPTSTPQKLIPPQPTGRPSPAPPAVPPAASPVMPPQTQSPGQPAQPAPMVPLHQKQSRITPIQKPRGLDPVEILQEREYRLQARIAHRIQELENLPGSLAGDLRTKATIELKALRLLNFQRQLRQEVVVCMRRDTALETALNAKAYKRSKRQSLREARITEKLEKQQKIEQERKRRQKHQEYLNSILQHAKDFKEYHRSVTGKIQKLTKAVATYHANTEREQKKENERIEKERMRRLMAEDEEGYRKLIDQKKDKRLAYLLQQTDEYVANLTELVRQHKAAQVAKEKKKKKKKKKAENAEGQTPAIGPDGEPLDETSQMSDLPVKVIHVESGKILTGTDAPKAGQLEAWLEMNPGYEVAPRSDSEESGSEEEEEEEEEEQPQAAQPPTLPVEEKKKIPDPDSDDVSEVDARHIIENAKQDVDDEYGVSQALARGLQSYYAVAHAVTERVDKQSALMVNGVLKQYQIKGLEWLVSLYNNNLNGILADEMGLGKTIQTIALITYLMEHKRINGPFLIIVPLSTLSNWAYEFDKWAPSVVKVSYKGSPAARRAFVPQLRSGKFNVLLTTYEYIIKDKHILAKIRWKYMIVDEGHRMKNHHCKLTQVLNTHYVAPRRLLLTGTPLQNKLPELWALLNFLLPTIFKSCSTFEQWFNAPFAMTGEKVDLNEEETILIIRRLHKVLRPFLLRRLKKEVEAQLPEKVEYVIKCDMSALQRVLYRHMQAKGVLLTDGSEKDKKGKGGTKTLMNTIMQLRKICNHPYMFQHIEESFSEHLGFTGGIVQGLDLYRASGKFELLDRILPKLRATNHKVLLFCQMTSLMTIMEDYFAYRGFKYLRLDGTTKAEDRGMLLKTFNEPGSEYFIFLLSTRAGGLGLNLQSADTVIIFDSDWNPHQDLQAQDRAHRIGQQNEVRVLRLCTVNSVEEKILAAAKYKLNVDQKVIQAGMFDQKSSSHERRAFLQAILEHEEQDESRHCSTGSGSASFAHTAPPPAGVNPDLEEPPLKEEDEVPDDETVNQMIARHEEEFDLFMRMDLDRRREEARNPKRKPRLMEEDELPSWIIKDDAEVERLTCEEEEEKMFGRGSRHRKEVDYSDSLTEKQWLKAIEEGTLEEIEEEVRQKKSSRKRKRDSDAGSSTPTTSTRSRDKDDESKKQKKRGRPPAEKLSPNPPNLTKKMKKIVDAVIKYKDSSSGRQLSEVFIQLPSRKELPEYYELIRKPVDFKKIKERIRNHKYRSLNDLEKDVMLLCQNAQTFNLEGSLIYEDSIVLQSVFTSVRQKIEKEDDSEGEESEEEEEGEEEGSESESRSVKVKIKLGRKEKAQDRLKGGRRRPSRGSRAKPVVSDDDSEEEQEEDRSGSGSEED
Test: HiBiT-BRG1 cell-based degradation assay (Nano-Glo HiBiT Lytic Detection, 24 h)
Details: HeLa, HeLa cells expressing HiBit-BRG1 and LgBit, top dose 30 μM, read-out: BRG1 HiBit Degradation Maximum measured
Protocol: Procedure: A stable HeLa cell line expressing HiBiT-BRM was generated. On day 0, 5000 cells were seeded in 40 μL of media into each well of 384-well cell culture plates. […] The plates were shaken for 10 minutes at room temperature and the bioluminescence read using an EnVision plate reader (PerkinElmer). […] The degradation % was calculated using the following formula: % degradation=100%−100%×(LumSample−LumLC)/(LumHC−LumLC). […]
Measured Dmax of individual entries
measurement-name: Dmax

molecule="CS(=O)(=O)n1ccc(C(=O)N[C@@H](CCCCNC(=O)C2CC2CNC(=O)COc2cccc3c2C(=O)N(C2CCC(=O)NC2=O)C3=O)C(=O)Nc2nc(-c3ccccc3)cs2)c1 (stereo partly shown)" measurement="< 50%"
molecule="CS(=O)(=O)n1ccc(C(=O)N[C@@H](CCOCCCC(=O)N2CC3(CCN(CCCNc4ccc5c(c4)C(=O)N(C4CCC(=O)NC4=O)C5=O)CC3)C2)C(=O)Nc2nc(-c3ccccc3)cs2)c1 (stereo partly shown)" measurement="< 50%"
molecule="CS(=O)(=O)n1ccc(C(=O)NCC(=O)Nc2nc(-c3cccc(-c4ccnc(OCCNC(=O)CCOCCOCCOc5cccc6c5C(=O)N(C5CCC(=O)NC5=O)C6=O)c4)c3)cs2)c1 (stereo not shown)" measurement="50 to 75%"
molecule="CS(=O)(=O)n1ccc(C(=O)N[C@@H](COCc2ccc(CNC(=O)CCCOc3cccc4c3C(=O)N(C3CCC(=O)NC3=O)C4=O)cc2)C(=O)Nc2nc(-c3ccccc3)cs2)c1 (stereo partly shown)" measurement="< 50%"
molecule="CN(CCOCCOCCNc1cccc2c1C(=O)N(C1CCC(=O)NC1=O)C2=O)C(=O)CN(C)c1cc(-c2cccc(-c3csc(NC(=O)CNC(=O)c4ccn(S(C)(=O)=O)c4)n3)c2)ccn1 (stereo not shown)" measurement="< 50%"
molecule="CS(=O)(=O)n1ccc(C(=O)N[C@@H](CCCCNC(=O)CCCCCCCCCCNc2cccc3c2C(=O)N(C2CCC(=O)NC2=O)C3=O)C(=O)Nc2nc(-c3ccccc3)cs2)c1 (stereo partly shown)" measurement="< 50%"
molecule="Cc1cc(C(=O)NCC(=O)Nc2nc(-c3cccc(-c4ccnc(N(C)CC(=O)NCCCCCNc5cccc6c5C(=O)N(C5CCC(=O)NC5=O)C6=O)c4)c3)cs2)cn1S(C)(=O)=O (stereo not shown)" measurement="< 50%"
molecule="CS(=O)(=O)n1ccc(C(=O)N[C@@H](CCOCCCC(=O)NCCNc2ccc3c(c2)C(=O)N(C2CCC(=O)NC2=O)C3=O)C(=O)Nc2nc(-c3ccccc3)cs2)c1 (stereo partly shown)" measurement="< 50%"
molecule="CN1C(=O)CCC(N2C(=O)c3cccc(OCC(=O)NCCCCCCCCNC(=O)C4(c5cc(-c6cccc(-c7csc(NC(=O)CNC(=O)c8ccn(S(C)(=O)=O)c8)n7)c6)ccn5)CC4)c3C2=O)C1=O (stereo not shown)" measurement="< 50%"
molecule="CS(=O)(=O)n1ccc(C(=O)NCC(=O)Nc2nc(-c3cccc(-c4ccnc(N5CCN(C(=O)CCOCCOCCNc6ccc7c(c6)C(=O)N(C6CCC(=O)NC6=O)C7=O)CC5)c4)c3)cs2)c1 (stereo not shown)" measurement="> 75%"
